Target: K28H/Q32H GB1 (Streptococcus sp. group G, UniProt P06654, K254H/Q258H)
Construct: made in house
Experiment: Isothermal titration calorimetry (ITC) at 298 K, single-site binding model
Conditions: pH 8.4; 298 K; listed as CuII-NTA; read-out: KD
Observation Type: Kd (µM)
Response body: numeric value in µM, unit text excluded.

# Kd (molecule: O=C([O-])CN(CC(=O)[O-])CC(=O)[O-].[Cu+2] [Cu^II–NTA, Cu^II-nitrilotriacetic acid] ) is 7.96

* * *

Target: K28H/Q32H GB1 (Streptococcus sp. group G, UniProt P06654, K254H/Q258H)
Construct: made in house
Test: Isothermal titration calorimetry (ITC) at 298 K, single-site binding model
Conditions: pH 6.4; ΔH extrapolated to 235 K; read-out: Predicted KD at 235 K
Observation Type: Kd

molecule O=C([O-])CN(CC(=O)[O-])CC(=O)[O-].[Cu+2] , Kd observed: ~4 µM
